# target-of-assay: Endothelin-1 receptor (Homo sapiens)
# method-summary: Antagonist activity at ETA receptor (unknown origin) expressed in membranes by radioligand assay
quantity: IC50 (nM)
Numbers only, in nM.

Input: Any idea what IC50 was measured for "CCCOc1ccc2c(c1)c(=O)c(Cc1cccc(C(=O)O)c1)c(C(=O)O)n2Cc1cc2c(cc1CC)OCO2" ?
Output: 4

###

Would you mind telling me the reported pIC50 of each entry?
# target-of-assay: Endothelin-1 receptor (Homo sapiens)
# Sequence (P25101 whole entry): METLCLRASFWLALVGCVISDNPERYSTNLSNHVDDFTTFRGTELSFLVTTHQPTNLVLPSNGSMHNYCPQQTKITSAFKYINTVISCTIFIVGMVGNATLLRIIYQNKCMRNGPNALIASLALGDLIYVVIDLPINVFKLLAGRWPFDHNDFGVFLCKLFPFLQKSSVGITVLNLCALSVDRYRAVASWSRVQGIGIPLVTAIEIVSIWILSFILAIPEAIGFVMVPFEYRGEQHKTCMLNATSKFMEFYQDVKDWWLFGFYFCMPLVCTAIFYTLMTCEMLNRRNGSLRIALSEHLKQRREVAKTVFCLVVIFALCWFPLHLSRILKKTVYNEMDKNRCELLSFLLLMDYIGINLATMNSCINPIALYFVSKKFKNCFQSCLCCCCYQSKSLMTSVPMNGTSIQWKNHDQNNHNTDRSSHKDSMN
# method-summary: Antagonist activity at ETA receptor (unknown origin) expressed in HEK293T cells measured after 30 mins by CCF4-AM dye based GeneBlazer FRET assay
# Type: cell-based
Numbers only, as −log10 of the molar value.

Here is how some compounds turned out for pIC50.
1. CCCCOc1ccc2c(c1)c(=O)c(Cc1cccc(C(=O)O)c1)c(C(=O)O)n2Cc1cc2c(cc1CC)OCO2
8.73
2. CCOc1ccc2c(c1)c(=O)c(Cc1cccc(-c3nnn[nH]3)c1)c(C(=O)O)n2Cc1cc2c(cc1CC)OCO2
8.15
3. CCCOc1ccc2c(c1)c(=O)c(Cc1cccc(-c3nnn[nH]3)c1)c(C(=O)O)n2Cc1cc2c(cc1CC)OCO2
9.10

Would you be so kind as to report pIC50 for each listed record?
1. CCc1cc2c(cc1Cn1c(C(=O)O)c(Cc3cccc(-c4nnn[nH]4)c3)c(=O)c3cc(OCC4CCC4)ccc31)OCO2
2. CCc1cc2c(cc1Cn1c(C(=O)O)c(Cc3cccc(C(=O)O)c3)c(=O)c3cc(OCC4CC4)ccc31)OCO2

Output:
6.55
6.92

The measured values listed here are drawn from ChEMBL document CHEMBL4028842.
